Origin of values: paper PMC9848270

test system: human non-small cell lung cancer cells (A549); test: MTT antiproliferative assay, A549; format: cell-based; conditions: A549, 10 μM, read-out: Inhibition rate, A549
Attribute: inhibition at 10 µM
OUTCOME MEASURE: inhibition at 10 µM (%)

{"columns": ["COMPOUND", "TARGET ENTITY", "OUTCOME MEASURE", "EXPERIMENTAL VALUE"],
 "data": [
  ["COc1ccc(-c2nnc(SCC(=O)Nc3cc(-c4c[nH]c5ccccc45)n[nH]3)s2)cc1 [Compound 10e]", "human non-small cell lung cancer cells (A549)", "inhibition at 10 µM", 92.2],
  ["COc1cc(-c2nnc(SCC(=O)Nc3cc(-c4c[nH]c5ccccc45)n[nH]3)n2N)cc(OC)c1OC [Compound 11b]", "human non-small cell lung cancer cells (A549)", "inhibition at 10 µM", 32.6],
  ["Nn1c(SCC(=O)Nc2cc(-c3c[nH]c4ccccc34)n[nH]2)nnc1-c1c[nH]c2ccccc12 [Compound 11n]", "human non-small cell lung cancer cells (A549)", "inhibition at 10 µM", 31],
  ["O=C(CSc1nnc(-c2ccccc2Br)s1)Nc1cc(-c2c[nH]c3ccccc23)n[nH]1 [Compound 10c]", "human non-small cell lung cancer cells (A549)", "inhibition at 10 µM", 24.3],
  ["O=C(CSc1nnc(-c2ccccn2)s1)Nc1cc(-c2c[nH]c3ccccc23)n[nH]1 [Compound 10i]", "human non-small cell lung cancer cells (A549)", "inhibition at 10 µM", 35.7]
]}
